// data source = PubChem BioAssay (NCI)

System: U251 CNS
assaySummary: NCI-60 one-dose screen, 48 h (100 = growth as untreated, 0 = no growth, -100 = all killed)
conditionLabel: 10 µM unless noted
Compounds without any hit were thinned out: in the full panel of roughly 83,000, 20% have a hit.
readoutLabel: growth (%)
# output: bare number, implied unit %

Below, 4 molecules whose answers are already recorded.
- molecule: "COC1=CC(c2ccc[nH]2)=N/C1=C\\c1[nH]c(C)c(C(=O)CCCCC(=O)Oc2ccc3c(c2)CCC2C3CC[C@]3(C)[C@@H](O)CC[C@@H]23)c1C (stereo not given in full)"
  growth, %: 52.6
- molecule: "Cc1nn(-c2ccc(Cl)cc2)c(=O)n1CCOc1ccccc1Cl"
  growth, %: 101
- molecule: "COc1cccc(-n2cc(-c3nc(Cl)c4ccccc4n3)nn2)c1"
  growth, %: 153
- molecule: "CSc1nc(-c2cc3ccccc3o2)cc(-c2ccc(Cl)cc2)c1C#N"
  growth, %: 6.2

Entry CCOC(=O)[C@H](CSSc1ncnc2cc[nH]c12)NC(=O)[C@@H](C)c1ccc2cc(OC)ccc2c1 under U251 CNS had growth of 35.6

# growth measured on U251 CNS for item COc1ccc(OC)c(/C=C2\Oc3cc(OCCN4CCCC4)ccc3C2=O)c1 = 89.5

# CCCCCCCCCCCCOB(OCCCCCCCCCCCC)OCCCCCCCCCCCC with U251 CNS: growth is 94.4

Record O=C1C2=C(C(=O)c3c(O)ccc(O)c31)N(c1cccnc1)Cc1ccccc1O2 has U251 CNS growth equal to 2.04

Noted growth for CN(C)c1ccc(-c2ccc(-c3ccc(C(=N)N)cn3)o2)cc1 , tested on U251 CNS: -91.1

Per the reported U251 CNS data, COc1cc2nc(Cl)nc(NCCO)c2cc1OC has growth of 96.5

###

Tested on: SNB-19 CNS
assaySummary: NCI-60 one-dose screen, 48 h (100 = growth as untreated, 0 = no growth, -100 = all killed)
conditionLabel: 10 µM unless noted
The panel holds about 83,000 compounds, 20% with a hit somewhere; the sample as a whole holds those more often.
readoutLabel: growth (%)
Number in %, nothing else.

Completed entries (count: 3):
- compound: "CN=S(=O)(NC(=O)c1ccc(Cl)cc1Cl)c1ccc(Br)s1 (centres undefined)"
  growth [%]: 103
- compound: "COc1ccc(/C=C2\\CCCC3=C2NC(C)=NC3c2ccc(OC)c(OC)c2)cc1OC (centres undefined)"
  growth [%]: 60.4
- compound: "COc1ccc(/C=C/C(=O)c2cccc(B(O)O)c2)cc1O"
  growth [%]: 59.5

Quick note, growth for Cc1ccc2c(c1)C(C)Cc1c(N(C)C)ncnc1N2C (centres undefined) landed at 43.8

// field: growth; key: O=C1Nc2ccc(Br)cc2C1=N/C=c1\[nH]c(=O)/c(=C/c2ccc(Cl)cc2)s1 ; value = 94

// growth lookup, compound = CCN1C(=O)N(CC)C2Nn3c(s/c(=C\c4cccc(F)c4)c3=O)=NC21 (centres undefined) , result: 80.7

Data point: CCCCCCCCCN1C(=O)/C(=c2\sc3n(c2=O)C2C(NN=3)N(CC)C(=O)N2CC)c2ccccc21 (centres undefined) ; growth = 39.7

# growth (compound: Cc1cc2c(C(C)C)c(O)c(O)c(C=NCCCCC(=O)O)c2c(O)c1-c1c(C)cc2c(C(C)C)c(O)c(O)c(C=NCCCCC(=O)O)c2c1O ) is 30.9

growth reported for this compound Clc1nc(Cl)c2ncn(C/C=C/Cn3cnc4c(Cl)nc(Cl)nc43)c2n1 : 74.5

The value of growth measured for the compound CCN(CC)c1cc(/C=C/c2ccc(OC)c(OC)c2)nc2cc(F)c(F)cc12 turned out to be -33.1

Looking up COc1cc(C2C=C(C)N=C3SC=CN32)cc(OC)c1OC (centres undefined) , I see its growth listed as 107

Recorded result, O=C(/C=C/CN1CCOCC1)Nc1cc2c(Nc3cccc(Cl)c3F)ncnc2cc1OCCOC(F)F , growth: 81.7

Just so you know, measured growth for Cc1cc(C)c(S(=O)(=O)N2CCN(c3cc4c(cc3F)c(=O)c(C(=O)O)cn4C3CC3)CC2)c(C)c1 came out at 66.3

###

compounds and their reported growth
Test system: SK-MEL-28 melanoma
assaySummary: NCI-60 one-dose screen, 48 h (100 = growth as untreated, 0 = no growth, -100 = all killed)
conditionLabel: 10 µM unless noted
Method: Growth inhibition of the SK-MEL-28 human tumor cell line is measured as a screen for anti-cancer activity. Cells are grown in 96 well plates and exposed to the test compound for 48 hours. Compounds are tested at a single concentration, which is 10^-5 M for most compounds. The reported endpoint is percent growth (GI% or GIPRCNT), where numbers from 0 - 100% represent growth inhibition, and numbers from -100% - 0 represent cell death. For example, a value of 40 represents 60% growth inhibition. […]
The panel holds about 83,000 compounds, 20% with a hit somewhere; the sample as a whole holds those more often.
Record the value in %, omitting the unit from your answer.

Field: example entries. Status: answers known.
- compoundStructure: "COc1cc(-c2n[nH]nc2-c2ccc3c(c2)OCCO3)cc(OC)c1OC"
  readoutLabel: "growth"
  recordedNumber: 38.9
- compoundStructure: "COc1cc(Cn2c(SCCC(=O)Nc3ccc(F)cc3)nc3ccccc3c2=O)cc(OC)c1OC"
  readoutLabel: "growth"
  recordedNumber: 99.8

The observed growth for COc1cc2nc(Cl)nc(NCCO)c2cc1OC when tested with SK-MEL-28 melanoma stands at 112

For COc1ccc(-c2nc(-c3nc4ccc(F)cc4[nH]3)cc3c2[nH]c2ccccc23)cc1 on SK-MEL-28 melanoma, measured growth was 57.4

Form field growth for item O=P([O-])(O)OP(=O)([O-])O.[NH-][C@H]1CCCC[C@@H]1[NH-].[OH-].[OH-].[Pt+4] on SK-MEL-28 melanoma: 118

Cc1cc(Nc2nc(-c3ccncc3)nc3ccccc23)n[nH]1 tested on SK-MEL-28 melanoma gave growth: 69.1

Test item CCCCCc1c(C)[nH]c(/C=c2\[nH]/c(=C3/C=c4ccccc4=N3)cc2OC)c1C ; SK-MEL-28 melanoma; reported growth was -60.2

###

Test system: SNB-19 CNS
assaySummary: NCI-60 one-dose screen, 48 h (100 = growth as untreated, 0 = no growth, -100 = all killed)
conditionLabel: 10 µM unless noted
About 83,000 compounds went through this panel and 20% of them were active in at least one assay; those are over-represented in the sample as a whole.
# note: exactly 70% is not below, so it is Not satisfied; use Satisfied for growth strictly under it

Past entries and their recorded results:
- compound: "CCN(CC)CCCNc1nc(C)cc(Nc2ccc3nc(C)cc(N)c3c2)n1"
  groupLabel: "Not satisfied"
- compound: "COc1cc(CCn2nnc3c(Nc4ccc(N5CCOCC5)cc4)ncnc32)cc(OC)c1"
  groupLabel: "Not satisfied"
- compound: "C=C1C(=O)O[C@H]2[C@H]1CC/C(COC(=O)NCc1cc(OC)cc(OC)c1)=C\\CC[C@@]1(C)O[C@@H]21"
  groupLabel: "Satisfied"
- compound: "CCN(Cc1ccc(CN(CC)C(=O)C(Cl)(Cl)Cl)cc1)C(=O)C(Cl)(Cl)Cl"
  groupLabel: "Not satisfied"

Input: Is growth strictly under 70% for the entry Cc1oc2nc[nH]c(=O)c2c1C(=O)/C=C/c1ccc(Cl)cc1Cl ?
Output: Not satisfied

Input: State whether 70% exceeds growth recorded for CCN1C(=O)N(CC)C2C1NN=c1s/c(=C\c3cccc(F)c3)c(=O)n12 (stereo not given) .
Output: Satisfied

Input: Item Nc1nc(-c2cc3ccccc3o2)cc(=O)c(=O)[nH]1 : growth beneath 70%, strictly?
Output: Not satisfied

Input: Bench note: check whether Cc1cc(-c2ccccc2)c(C)n1Cc1ccc(Cl)cc1 shows growth below 70%
Output: Satisfied

Input: Please state whether growth is below 70% for CCN1C(=O)N(CC)C2C1NN=c1s/c(=C\c3ccccn3)c(=O)n12 (stereo not given)
Output: Satisfied

###

Tested on: NCI-H23 lung
assaySummary: NCI-60 one-dose screen, 48 h
conditionLabel: 10 µM unless noted
Compounds without any hit were thinned out: in the full panel of roughly 83,000, 20% have a hit. Active and inactive are the calls of the source. The calls were made as follows: active = growth percent below 10; inactive = the rest.
The reply should be one of these categories: 1 (yes) = active, 0 (no) = inactive

- molecule: "COc1cc(Cn2c(-c3nonc3N)nc3ccccc32)ccc1C"
  groupLabel: "0 (no)"

Input: Write down the call the test reported for this molecule. Item: CCC#CC[C@H]1C/C=C2/C(=O)C=C[C@@H]2C/C=C\CCCC(=O)O1
Output: 0 (no)

Input: Tell me the recorded outcome of this test for O=P([O-])(O)OP(=O)([O-])O.[NH-][C@H]1CCCC[C@@H]1[NH-].[OH-].[OH-].[Pt+4] .
Output: 0 (no)

Input: Short answer needed: outcome of this test for CC(C)CCC[C@@H](C)[C@H]1CC[C@H]2[C@@H]3CC[C@H]4C/C(=N/O)CC[C@]4(C)[C@H]3CC[C@]12C ?
Output: 0 (no)

Input: Please indicate how the test categorized Cc1cc2c(c(=O)o1)C(c1ccc(OC(=O)N3CCOCC3)cc1)C(C#N)=C(N)O2 (stereo not given) .
Output: 0 (no)

Input: Record request — test call for COc1ccc(/C=C/C(=O)c2cccc(B(O)O)c2)cc1O
Output: 0 (no)

Input: Record request — test call for COc1ccc(-c2cn[nH]c2-c2cc(OC)c3c(c2)OCCO3)cc1
Output: 0 (no)

Input: Dear all, I need the recorded test outcome for N#Cc1ncc(-c2ccc(F)c(F)c2F)c(NC2CCCCCC2)n1 , thank you.
Output: 0 (no)

Input: # outcome recorded in this test, key = C[C@]12CC[C@@H]3c4cc(O)c(O)cc4CC[C@H]3[C@@H]1CC[C@@H]2O
Output: 0 (no)

Input: What call does the record list for Nc1cc2c(cc1N)-c1cc(N)c(N)cc1C2 ?
Output: 0 (no)

Input: // outcome(item) with item = O=C(/C=C/CN1CCCCC1)Nc1cc2c(Nc3ccc(F)c(Cl)c3F)ncnc2cc1OCCOC(F)F
Output: 0 (no)

Input: Tell me the recorded outcome of this test for COc1cc(CNC(=O)CCSc2nc3ccccc3c(=O)n2Cc2cc(OC)c(OC)c(OC)c2)cc(OC)c1OC .
Output: 0 (no)
